Cited source for all entries: patent US8927533B2

molecular target: HDAC1 (Homo sapiens); assay: HDAC enzymatic assay, HDAC1; format: biochemical; settings: fluorogenic tetrapeptide RHKKAc substrate 10 μM; read-out: HDAC isoforms IC50 (nM), 1
Sequence (Q13547 whole entry, canonical isoform): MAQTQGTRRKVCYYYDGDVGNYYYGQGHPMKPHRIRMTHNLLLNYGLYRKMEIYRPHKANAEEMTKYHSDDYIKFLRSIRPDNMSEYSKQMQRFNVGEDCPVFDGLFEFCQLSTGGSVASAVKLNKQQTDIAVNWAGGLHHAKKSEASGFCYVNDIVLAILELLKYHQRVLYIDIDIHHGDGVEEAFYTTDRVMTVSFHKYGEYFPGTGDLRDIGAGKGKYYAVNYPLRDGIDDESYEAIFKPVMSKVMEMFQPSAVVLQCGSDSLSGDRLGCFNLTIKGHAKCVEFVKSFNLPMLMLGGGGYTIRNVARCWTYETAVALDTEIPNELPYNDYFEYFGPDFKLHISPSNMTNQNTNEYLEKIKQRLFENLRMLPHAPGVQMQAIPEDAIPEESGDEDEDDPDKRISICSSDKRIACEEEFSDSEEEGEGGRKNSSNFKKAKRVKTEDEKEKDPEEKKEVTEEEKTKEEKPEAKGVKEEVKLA
Below, each entry is listed alongside its reported IC50.

Answered cases to consult:
[
  {
    "compound": "O=C1CCC[C@H](C(=O)N[C@@H](CCCCCS)C(=O)Nc2ccccc2)N1 [Example 37]",
    "experimental-target": "HDAC1 (Homo sapiens)",
    "IC50": "< 50 nM"
  },
  {
    "compound": "O=C1CC[C@H](C(=O)N[C@@H](CCCCCS)C(=O)Nc2ccccc2)N1 [Example 33]",
    "experimental-target": "HDAC1 (Homo sapiens)",
    "IC50": "< 50 nM"
  },
  {
    "compound": "Cc1cccc(NC(=O)[C@H](CCCCCS)NC(=O)[C@@H]2CCCC(=O)N2)c1 [Example 38]",
    "experimental-target": "HDAC1 (Homo sapiens)",
    "IC50": "< 50 nM"
  },
  {
    "compound": "Cc1ccc(NC(=O)[C@H](CCCCCS)NC(=O)[C@@H]2CCCC(=O)N2)cc1 [Example 39]",
    "experimental-target": "HDAC1 (Homo sapiens)",
    "IC50": "< 50 nM"
  }
]

**Query** Answer with IC50 of CN1C(=O)CCC[C@H]1C(=O)N[C@@H](CCCCCS)C(=O)Nc1ccccc1 [Example 40] measured for HDAC1 (Homo sapiens).
**Result** < 50 nM

**Query** Answer with IC50 of O=C1NC[C@@H](c2ccccc2)[C@@H]1C(=O)N[C@@H](CCCCCS)C(=O)Nc1ccccc1 [Example 31] measured for HDAC1 (Homo sapiens).
**Result** < 50 nM

**Query** Answer with IC50 of O=C1NCCC[C@H]1C(=O)N[C@@H](CCCCCS)C(=O)Nc1ccccc1 [Example 35] measured for HDAC1 (Homo sapiens).
**Result** < 50 nM

**Query** Answer with IC50 of O=C1CCC[C@@H](C(=O)N[C@@H](CCCCCS)C(=O)NC2CCCC2)N1 [Example 24] measured for HDAC1 (Homo sapiens).
**Result** 100 to 500 nM

---

target: HDAC9 (Homo sapiens, UniProt Q9UKV0); assay: HDAC enzymatic assay, HDAC9; assay type: biochemical; settings: Table 2, thio (SH) vs hydroxamate (CONHOH) MBG analogues; read-out: HDAC isoforms, 9 (IC50)
Sequence (Q9UKV0 whole entry, canonical isoform): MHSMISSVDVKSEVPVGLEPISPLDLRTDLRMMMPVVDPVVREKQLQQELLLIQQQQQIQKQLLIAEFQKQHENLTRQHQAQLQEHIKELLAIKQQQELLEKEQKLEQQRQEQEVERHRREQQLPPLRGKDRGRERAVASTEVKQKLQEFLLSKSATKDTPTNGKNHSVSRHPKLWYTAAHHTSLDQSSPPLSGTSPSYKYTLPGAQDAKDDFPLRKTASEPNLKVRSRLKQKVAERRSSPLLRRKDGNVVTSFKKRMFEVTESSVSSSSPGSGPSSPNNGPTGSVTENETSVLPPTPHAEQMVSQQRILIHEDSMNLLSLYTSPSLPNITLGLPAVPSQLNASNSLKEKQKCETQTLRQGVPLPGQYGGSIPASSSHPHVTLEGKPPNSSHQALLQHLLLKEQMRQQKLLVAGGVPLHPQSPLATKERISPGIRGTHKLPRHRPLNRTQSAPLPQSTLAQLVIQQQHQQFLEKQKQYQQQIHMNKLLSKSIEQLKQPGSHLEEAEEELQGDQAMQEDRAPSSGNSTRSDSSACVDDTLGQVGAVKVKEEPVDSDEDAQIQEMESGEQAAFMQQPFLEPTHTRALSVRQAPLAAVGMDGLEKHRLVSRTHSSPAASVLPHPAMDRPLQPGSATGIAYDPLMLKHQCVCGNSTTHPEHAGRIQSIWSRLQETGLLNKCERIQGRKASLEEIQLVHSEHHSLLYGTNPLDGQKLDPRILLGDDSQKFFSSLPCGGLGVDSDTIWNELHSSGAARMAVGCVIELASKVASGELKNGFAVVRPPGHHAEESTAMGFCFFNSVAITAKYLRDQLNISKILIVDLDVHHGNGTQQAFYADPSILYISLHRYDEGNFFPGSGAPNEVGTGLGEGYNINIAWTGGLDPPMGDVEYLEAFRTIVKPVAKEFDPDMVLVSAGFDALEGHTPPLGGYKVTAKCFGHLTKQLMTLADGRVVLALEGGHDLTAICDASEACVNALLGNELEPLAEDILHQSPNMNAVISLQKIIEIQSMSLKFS
Below, each entry is listed alongside its reported IC50.

**Query** Give the value of IC50 reported for the following: "O=C1CC[C@H](C(=O)N[C@@H](CCCCCS)C(=O)Nc2ccccc2)N1"
**Result** < 50 nM

**Query** Give the value of IC50 reported for the following: "CC(=O)SCCCCC[C@H](NC(=O)[C@H]1CCC(=O)N1)C(=O)Nc1ccccc1"
**Result** < 50 nM

**Query** Give the value of IC50 reported for the following: "O=C1NC[C@@H](c2ccccc2)[C@@H]1C(=O)N[C@@H](CCCCCS)C(=O)Nc1ccccc1"
**Result** < 50 nM

---

Below, each entry is listed alongside its reported IC50.
molecular target: HDAC6 (Homo sapiens, UniProt Q9UBN7); assay: HDAC enzymatic assay, HDAC6; format: biochemical; conditions: fluorogenic tetrapeptide RHKKAc substrate 10 μM; read-out: HDAC isoforms IC50 (nM), 6
Sequence (Q9UBN7 whole entry, canonical isoform): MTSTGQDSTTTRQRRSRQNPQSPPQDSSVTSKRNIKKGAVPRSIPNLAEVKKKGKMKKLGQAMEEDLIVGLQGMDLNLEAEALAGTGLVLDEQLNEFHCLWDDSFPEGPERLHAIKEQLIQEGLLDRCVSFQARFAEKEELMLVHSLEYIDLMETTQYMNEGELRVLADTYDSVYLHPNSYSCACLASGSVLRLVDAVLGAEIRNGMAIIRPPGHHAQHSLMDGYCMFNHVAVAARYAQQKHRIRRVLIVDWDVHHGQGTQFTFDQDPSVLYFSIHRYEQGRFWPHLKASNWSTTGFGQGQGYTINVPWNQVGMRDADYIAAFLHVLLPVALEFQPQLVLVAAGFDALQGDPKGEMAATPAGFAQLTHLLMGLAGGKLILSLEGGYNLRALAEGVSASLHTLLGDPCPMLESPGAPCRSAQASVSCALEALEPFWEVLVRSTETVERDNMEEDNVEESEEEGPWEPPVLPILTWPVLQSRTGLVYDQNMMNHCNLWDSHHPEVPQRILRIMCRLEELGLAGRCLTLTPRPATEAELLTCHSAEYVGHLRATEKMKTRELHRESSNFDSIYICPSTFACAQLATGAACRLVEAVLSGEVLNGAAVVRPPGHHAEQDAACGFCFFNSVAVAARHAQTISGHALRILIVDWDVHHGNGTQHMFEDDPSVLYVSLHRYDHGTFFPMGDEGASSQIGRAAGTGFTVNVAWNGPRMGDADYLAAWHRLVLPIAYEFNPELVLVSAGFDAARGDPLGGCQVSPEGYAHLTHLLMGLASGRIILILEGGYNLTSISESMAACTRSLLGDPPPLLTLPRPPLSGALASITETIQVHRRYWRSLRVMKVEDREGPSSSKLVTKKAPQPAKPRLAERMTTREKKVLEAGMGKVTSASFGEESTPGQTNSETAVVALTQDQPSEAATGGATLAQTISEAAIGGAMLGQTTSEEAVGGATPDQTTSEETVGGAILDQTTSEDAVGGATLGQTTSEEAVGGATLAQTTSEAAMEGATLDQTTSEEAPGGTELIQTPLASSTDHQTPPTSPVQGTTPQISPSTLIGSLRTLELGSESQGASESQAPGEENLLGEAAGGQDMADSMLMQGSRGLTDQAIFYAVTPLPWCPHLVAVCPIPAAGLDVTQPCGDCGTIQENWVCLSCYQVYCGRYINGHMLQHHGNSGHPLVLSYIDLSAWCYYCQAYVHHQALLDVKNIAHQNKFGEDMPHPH

Answered cases to consult:
[
  {
    "smiles-entry": "O=C1NC[C@H](c2ccccc2)[C@@H]1C(=O)N[C@@H](CCCCCS)C(=O)Nc1ccccc1",
    "measured-parameter": "IC50",
    "result": "< 50 nM"
  },
  {
    "smiles-entry": "O=C1CCC[C@@H](C(=O)N[C@@H](CCCCCS)C(=O)N2CCc3ccccc3C2)N1",
    "measured-parameter": "IC50",
    "result": "100 to 500 nM"
  }
]

**Query** Answer with IC50 of "O=C1NC[C@@H](c2ccccc2)[C@H]1C(=O)N[C@@H](CCCCCS)C(=O)Nc1ccccc1" measured for HDAC6 (Homo sapiens, UniProt Q9UBN7).
**Result** < 50 nM

**Query** Answer with IC50 of "Cc1cccc(NC(=O)[C@H](CCCCCS)NC(=O)[C@@H]2CCCC(=O)N2)c1" measured for HDAC6 (Homo sapiens, UniProt Q9UBN7).
**Result** < 50 nM

**Query** Answer with IC50 of "O=C1NC[C@H](c2ccccc2)[C@H]1C(=O)N[C@@H](CCCCCS)C(=O)Nc1ccccc1" measured for HDAC6 (Homo sapiens, UniProt Q9UBN7).
**Result** 100 to 500 nM

**Query** Answer with IC50 of "O=C1CC[C@H](C(=O)N[C@@H](CCCCCS)C(=O)Nc2ccccc2)N1" measured for HDAC6 (Homo sapiens, UniProt Q9UBN7).
**Result** < 50 nM
